sequences and their reported transcriptional activation domain activity
test system: Saccharomyces cerevisiae; test: transcriptional activation domain activity (GFP:mCherry ratio, weighted mean of sorted bins, harmonized to initial dataset scale) (arbitrary fluorescence ratio units); higher = stronger transcriptional activation; conditions: beta-estradiol 1 µM; induction time 4 h
Could you respond with only the numeric value?

Query: Name the reported transcriptional activation domain activity value associated with the sequence `IGKVTSAGLMSKTVRVDRPVQEWHNYLRKFYKSSKHYLVHDPANSLRTGDMIS`
Reply: 69800

Query: Name the reported transcriptional activation domain activity value associated with the sequence `MLLLPLSFPFLSFPFLSFPFLSFPFLSSPFLSLVFSVLVLFFIFLLLLLLLLL`
Reply: 34900

Query: Name the reported transcriptional activation domain activity value associated with the sequence `LIHLMNIGQVSILFIHRFLYGLVPLFEITTCAFWPLLVSLWHLNFVLMYCIMF`
Reply: 66000

Query: Name the reported transcriptional activation domain activity value associated with the sequence `MVGRGCAVQVMIYPLFFVPGFLGFGFLVCYHFPFFMSLLWVLAWLRFWLVISS`
Reply: 64400

Query: Name the reported transcriptional activation domain activity value associated with the sequence `AVLWNPCICFKSPLVFRFCLSVLLAYLSLPFIPFVFLYYCFLFFVLWFIHSSY`
Reply: 31700

Query: Name the reported transcriptional activation domain activity value associated with the sequence `EEPKAEEAAPAAEAPAAEAPAAETPAAEPAAEQPATEEAKPAESAATETKKED`
Reply: 12500

Query: Name the reported transcriptional activation domain activity value associated with the sequence `MHCVLALSLGLLSRVIVFYGCSFRGKLHFMMFWEALYLLLIFMRMLWLLFFIT`
Reply: 51000

Query: Name the reported transcriptional activation domain activity value associated with the sequence `SSVVLFVFFLLFLLFSLFFYPTWLLPCLIFLLNDYLLFFLLFFCRVSCSFAPL`
Reply: 45800

Okay, next one:
Query: Name the reported transcriptional activation domain activity value associated with the sequence `AMKDIEIVKDEETGAPIVRLRGEAAAAAKKAGVQDITLSISHSDNQAIAVAVA`
Reply: 58900

----------
tested on: Saccharomyces cerevisiae; assay: transcriptional activation domain activity (GFP:mCherry ratio, weighted mean of sorted bins, harmonized to initial dataset scale) (arbitrary fluorescence ratio units); higher = stronger transcriptional activation; details: beta-estradiol 1 µM; induction time 4 h
sequences and their reported transcriptional activation domain activity
Could you respond with only the numeric value?

Query: Name the reported transcriptional activation domain activity value associated with the sequence `GKPGGGEAKTGERKGEGRGGRGKGGPGGKKDGPPPGEGKGAVVASAASTSATP`
Reply: 34700

***
Query: Name the reported transcriptional activation domain activity value associated with the sequence `SGNPPNVVMPPIVCPYSPIIIISYVVTYFFLHHFGGLIGWLQFLSLLLQSLMV`
Reply: 51000

----------
test system: Saccharomyces cerevisiae; test: transcriptional activation domain activity (GFP:mCherry ratio, weighted mean of sorted bins, harmonized to initial dataset scale) (arbitrary fluorescence ratio units); higher = stronger transcriptional activation; settings: beta-estradiol 1 µM; induction time 4 h
sequences and their reported transcriptional activation domain activity
Could you respond with only the numeric value?

Query: Checklist item: transcriptional activation domain activity tested on Saccharomyces cerevisiae, entry `HVERGRDVTKGFVKCHTHMRTTCVGSIRFSHAASFAPSVCLGVGVKSLDRRPL` , value?
Reply: 37300

Query: Checklist item: transcriptional activation domain activity tested on Saccharomyces cerevisiae, entry `AQPPAIEGKKSKKGEAPAAEVQKKEKKEKKPAEEGASKKGGSAKAAAAPAEDA` , value?
Reply: 9790

Query: Checklist item: transcriptional activation domain activity tested on Saccharomyces cerevisiae, entry `SREFLWVGFGVRCMVLAKFQVIKGLKYIRTIIAQKNQSAGLAIELRILMVVWV` , value?
Reply: 43800

Query: Checklist item: transcriptional activation domain activity tested on Saccharomyces cerevisiae, entry `YPKALPFYGKILGYMTSIYDTIARLAFLKTLQPQGPLDYMLWLVIMTATRIFY` , value?
Reply: 53800

Query: Checklist item: transcriptional activation domain activity tested on Saccharomyces cerevisiae, entry `HEQKICAKYGSDVIFADNIDGGDSDEDERSTSCTCGKLRAIVARVMVAIGGDL` , value?
Reply: 48400

Okay, next one:
Query: Checklist item: transcriptional activation domain activity tested on Saccharomyces cerevisiae, entry `MVFPSKSLFYLVGPCLSFFFVPPTWYDVFHLLFSPMTLDYYPFVLWYSPFLST` , value?
Reply: 39300
